Data origin, for the record: patent US20200255504A1

# Measured On: T1, human serum albumin (human, UniProt P02768 25-609)
# T1 construct: also called HSA; human albumin
# Measurement Protocol: BLI Octet RED96, albumin on AR2G sensors (as in Example 4)
Metric: Kd (nM)

- Binder: "SA1_S30K humanized variant 4 VHH (VHH, also called h4) VHH: EVQLQESGGGLVQPGGSLRLSCAASGRNIKEYVMGWFRQAPGKEREFVAAISWSAGNIYYADSVKGRFTISRDNSKNTVYLQMNSLRPEDTAVYYCAAGRYSAWYVAAYEYDYWGQGTLVTVSS"
  Observed: 2.11
- Binder: "SA1_S30K humanized variant 1 VHH (VHH, also called h1) VHH: EVQLQESGGGLVQPGGSLRLSCAASGRNIKEYVMGWFRQAPGKEREFVAAISWSAGNIYYADSVKGRFTISRDNSKNTVHLQMNTLRPEDTAVYYCAAGRYSAWYVAAYEYDYWGQGTLVTVSS"
  Observed: 1.33
- Binder: "SA1_S30K VHH (VHH, Made in E. coli WK6 periplasm; also called SA1_S3OK; SA1_S30K mutant variant) VHH: QVQLQESGGGLVQAGGSLRLSCAASGRNIKEYVMGWFRQAPGKEREFVAAISWSAGNIYYADSVKGRFTISRDNAKNTVHLQMNTLRPEDTAVYYCAAGRYSAWYVAAYEYDYWGQGTQVTVSS"
  Observed: 1.28
- Binder: "SA1_S30K humanized variant 3 VHH (VHH, also called h3) VHH: EVQLQESGGGLVQPGGSLRLSCAASGRNIKEYVMGWFRQAPGKEREFVAAISWSAGNIYYADSVKGRFTISRDNSKNTVHLQMNSLRPEDTAVYYCAAGRYSAWYVAAYEYDYWGQGTLVTVSS"
  Observed: 1.64
- Binder: "SA1_S30K humanized variant 2 VHH (VHH, also called h2) VHH: EVQLQESGGGLVQPGGSLRLSCAASGRNIKEYVMGWFRQAPGKEREFVAAISWSAGNIYYADSVKGRFTISRDNSKNTVYLQMNTLRPEDTAVYYCAAGRYSAWYVAAYEYDYWGQGTLVTVSS"
  Observed: 1.53
